- testTarget: RAR beta (Homo sapiens)
- Sequence (P10826 183-417 limits assumed): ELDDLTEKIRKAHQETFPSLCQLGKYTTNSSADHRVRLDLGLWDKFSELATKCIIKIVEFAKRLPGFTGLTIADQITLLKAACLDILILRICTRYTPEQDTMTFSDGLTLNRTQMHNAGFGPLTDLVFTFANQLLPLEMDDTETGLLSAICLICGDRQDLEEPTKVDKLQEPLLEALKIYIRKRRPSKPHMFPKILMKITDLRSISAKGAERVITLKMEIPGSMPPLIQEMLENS
- assayMethodText: Transactivation test (luciferase reporter, HeLa cells), RAR beta
- experimentalSetup: HeLa stable transfectants, Schild regression against reference agonist 4-[2-(5,5,8,8-tetramethyl-5,6,7,8-tetrahydro-2-naphthyl)propenyl]benzoic acid; read-out: RAR beta Kdapp
Could you please report measured Kd for the items listed next?
Expressed in nM, but write only the number.

Asked: # query: Kd | item `CC1(C)CCC(C)(C)c2c(OCc3ccc(F)cc3)cc([Se]C#Cc3ccc(C(=O)O)cc3)cc21` | system: RAR beta (Homo sapiens)
Given back: 4

Asked: # query: Kd | item `Cc1cccc(COc2cc([Se]C#Cc3ccc(C(=O)O)cc3)cc3c2C(C)(C)CCC3(C)C)c1` | system: RAR beta (Homo sapiens)
Given back: 15

Asked: # query: Kd | item `CC1(C)CCC(C)(C)c2c(OCc3ccc(F)cc3F)cc([Se]C#Cc3ccc(C(=O)O)cc3)cc21` | system: RAR beta (Homo sapiens)
Given back: 1

Asked: # query: Kd | item `CC(C)(C)c1ccc(COc2cc([Se]C#Cc3ccc(C(=O)O)cc3)cc3c2C(C)(C)CCC3(C)C)cc1` | system: RAR beta (Homo sapiens)
Given back: 30

Asked: # query: Kd | item `CC1(C)CCC(C)(C)c2c(OCc3cccc(F)c3)cc([Se]C#Cc3ccc(C(=O)O)cc3)cc21` | system: RAR beta (Homo sapiens)
Given back: 4

Asked: # query: Kd | item `CC1(C)CCC(C)(C)c2c(OCc3ccc(F)c(F)c3)cc([Se]C#Cc3ccc(C(=O)O)cc3)cc21` | system: RAR beta (Homo sapiens)
Given back: 4
